Origin of the recorded values: ChEMBL document CHEMBL2169886

Test: in vivo
Settings: rat
measurement_name: Vd (L/kg)
One number for each entry, in L/kg.

Observe how each entry below is paired with its result.
Q: Value lookup for Vd; key = "OCCn1cc(-c2cnc3nnn(Cc4ccc5ncccc5c4)c3n2)cn1"
A: 1.6

Q: Value lookup for Vd; key = "N[C@@H]1CCN(c2cnc3nnn(Cc4ccc5ncccc5c4)c3n2)C1"
A: 3.6

// each compound listed below needs its Vd
1. c1cnc2ccc(Cn3nnc4ncc(-c5cnn(C6CCNCC6)c5)nc43)cc2c1
2. Nc1cnc2nnn(Cc3ccc4ncccc4c3)c2n1

A:
1. 27
2. 0.95

###

Test: clinical
Settings: human, plasma
measurement_name: AUC (ng·h/mL)
Give bare numbers, in ng·h/mL.

Q: Value lookup for AUC; key = "CS(=O)(=O)O.OCCn1cc(-c2cnc3nnn(Cc4ccc5ncccc5c4)c3n2)cn1"
A: 810

###

Assay: clinical
Details: human, in vivo, po, 30 mg
measurement_name: Cmax at 1.2 h (ng/mL)
Give bare numbers, in ng/mL.

Q: Value lookup for Cmax at 1.2 h; key = "CS(=O)(=O)O.OCCn1cc(-c2cnc3nnn(Cc4ccc5ncccc5c4)c3n2)cn1"
A: 240

###

Exercise: state measured bioavailability for each of the compounds provided.
Test: in vivo
Conditions: rat, po
One number for each entry, in %.

Q: Value lookup for bioavailability; key = OCCn1cc(-c2cnc3nnn(Cc4ccc5ncccc5c4)c3n2)cn1 [PF-04217903]
A: 71

---
Q: Value lookup for bioavailability; key = "Nc1cnc2nnn(Cc3ccc4ncccc4c3)c2n1"
A: 75
